Test system: L1210 leukemia ip in BDF1 mice, survival T/C
Test: NCI In Vivo Anticancer Drug Screen. Data for tumor model L1210 Leukemia (intraperitoneal) in B6D2F1 (BDF1) mice
Conditions: endpoint: mean survival time; dose: 50.0 mg/kg/injection; schedule: Q01DX009 (ip); vehicle: saline with Tween-80; higher = longer survival
Inconclusive results and toxic doses are left out.
In this section we review reported T/C values for a set of molecules.

molecule | T/C
O=C(c1ccccc1)c1c2ccccc2cc2ccccc12 | 91 % of control
CNC1(C(N)=O)CCN(Cc2ccccc2)CC1 | 99 % of control

# input What measured T/C goes with `Cc1ccc(Cl)cc1NC(=O)c1ccc([N+](=O)[O-])cc1` ?
# output 91 % of control

# input Consider the molecule shown here: `Cc1ccc(C(=O)Cl)cc1S(=O)(=O)F` What is its recorded T/C?
# output 104 % of control

# input Recorded T/C for `Clc1ccc2nc(CBr)cnc2c1` , please?
# output 95 % of control

----------
Test system: L1210 leukemia ip in BDF1 mice, survival T/C
Assay: NCI In Vivo Anticancer Drug Screen. Data for tumor model L1210 Leukemia (intraperitoneal) in B6D2F1 (BDF1) mice
Settings: endpoint: mean survival time; dose: 400.0 mg/kg/injection; schedule: Q04DX003 (ip); vehicle: other; higher = longer survival
Toxic doses and inconclusive results are not listed.
Overview of recorded T/C for various compounds

// solved cases for T/C follow
input-smiles | value-observed
COc1cc2c(cc1OC(C)=O)C(=O)CCC=C2 | 103 % of control
CS(=O)(=O)N(CC(=O)O)Cc1cccc(Cl)c1 | 103 % of control
Nc1cccnc1Cl | 93 % of control

Now for another entry.
# input Requested field: T/C. Item: `COc1ccc(Cc2ccccc2)c(O)c1`
# output 91 % of control

----------
Measured T/C, listed per entry for reference.
Tested on: L1210 leukemia ip in BDF1 mice, survival T/C
Assay: NCI In Vivo Anticancer Drug Screen. Data for tumor model L1210 Leukemia (intraperitoneal) in B6D2F1 (BDF1) mice
Details: endpoint: mean survival time; dose: 400.0 mg/kg/injection; schedule: Q04DX003 (ip); vehicle: water; higher = longer survival
Inconclusive results and toxic doses are left out.

Some compounds with known T/C results, for comparison:
compound | system-under-test | value-observed
Cc1cc(C(=O)O)c(CN)c(=O)n1C | L1210 leukemia ip in BDF1 mice, survival T/C | 102 % of control
CC(C)CCCC(C)C1CCC2C3CC=C4CC(O)CCC4(C)C3CCC12C (centres undefined) (tested in a mixture with another compound) | L1210 leukemia ip in BDF1 mice, survival T/C | 87 % of control
CC(=O)OC/C=C(\C)CCC=O | L1210 leukemia ip in BDF1 mice, survival T/C | 100 % of control

We now examine a further compound.
# input Requested read-out T/C, target or system L1210 leukemia ip in BDF1 mice, survival T/C, entry `COC(=O)CSc1ncc2cnccn12`
# output 104 % of control

----------
Test system: L1210 leukemia ip in BDF1 mice, survival T/C
Test: NCI In Vivo Anticancer Drug Screen. Data for tumor model L1210 Leukemia (intraperitoneal) in B6D2F1 (BDF1) mice
Settings: endpoint: mean survival time; dose: 100.0 mg/kg/injection; schedule: Q04DX003 (ip); vehicle: Klucel (hydroxypropylcellulose) (HPC); higher = longer survival
Toxic doses and inconclusive results are not listed.
# T/C per entry

Solved cases (5 shown):
compound | T/C
CN(C)C(=S)SCc1c(Cl)c(Cl)c(Cl)c(Cl)c1Cl | 105 % of control
CC(=O)Oc1cc(C)c(OC(C)=O)c2ccccc12 | 96 % of control
Oc1ccccc1CNc1ccccc1 | 96 % of control
Fc1ccccc1-c1nnc(-c2ccccc2)o1 | 98 % of control
O=C(COc1ccc([N+](=O)[O-])cc1Cl)Nc1cccc(S(=O)(=O)F)c1 | 98 % of control

# input Look at this compound and give its reported T/C. `Cc1cccc(-c2nc3cc(Cl)ccc3c(=O)o2)c1`
# output 97 % of control

# input What T/C value was documented for this compound, `O=C1CCC(c2ccccc2)=NN1` ?
# output 93 % of control

# input Could you tell me which T/C is on file for `Cc1ccc(S(=O)(=O)Oc2ccc(C(C)(C)c3ccc(OS(=O)(=O)c4ccc(C)cc4)cc3)cc2)cc1` ?
# output 93 % of control

# input Which measured T/C value corresponds to `NC(=S)N/N=C/c1c[nH]c2ccccc12` ?
# output 87 % of control

----------
Tested on: L1210 leukemia ip in BDF1 mice, survival T/C
Experiment: NCI In Vivo Anticancer Drug Screen. Data for tumor model L1210 Leukemia (intraperitoneal) in B6D2F1 (BDF1) mice
Settings: endpoint: mean survival time; dose: 12.5 mg/kg/injection; schedule: Q04DX003 (ip); vehicle: saline with Tween-80; higher = longer survival
Toxic doses and inconclusive results are not listed.
// reported T/C per item

compound | system-under-test | T/C
ClCC1CNC(c2ccccc2)O1 (configuration not stated) | L1210 leukemia ip in BDF1 mice, survival T/C | 96 % of control
CN(C)C=Nc1ccc2c3c(cccc13)CC2 | L1210 leukemia ip in BDF1 mice, survival T/C | 88 % of control
CN(C)CCCN=Cc1ccccc1O.CN(C)CCCN=Cc1ccccc1O.[Ni+2] | L1210 leukemia ip in BDF1 mice, survival T/C | 94 % of control
CCCCN(CCCC)CC(O)c1ccc2cc(Cl)cc(Cl)c2n1 (configuration not stated) | L1210 leukemia ip in BDF1 mice, survival T/C | 95 % of control
CC(C)C1C(=O)N2CCCC2C2(O)OC(C(=O)NCCc3c[nH]c4ccccc34)(C(C)C)C(=O)N12 (configuration not stated) | L1210 leukemia ip in BDF1 mice, survival T/C | 111 % of control

# input Observed T/C on L1210 leukemia ip in BDF1 mice, survival T/C for `C(=C\c1cc[n+](CCc2ccccc2)cc1)/c1ccccc1` , please.
# output 89 % of control

# input Request - read-out T/C | tested on L1210 leukemia ip in BDF1 mice, survival T/C | compound `CC(F)(F)C(F)(F)C(=O)CC(=O)C(F)(F)F.CC(F)(F)C(F)(F)C(=O)CC(=O)C(F)(F)F.[Cu]`
# output 95 % of control

----------
Here, each record is paired with measured T/C data.
Test system: L1210 leukemia ip in BDF1 mice, survival T/C
Assay: NCI In Vivo Anticancer Drug Screen. Data for tumor model L1210 Leukemia (intraperitoneal) in B6D2F1 (BDF1) mice
Details: endpoint: mean survival time; dose: 200.0 mg/kg/injection; schedule: Q01DX001 (ip); vehicle: saline; higher = longer survival
Procedure: The antitumor activity of compounds was measured in mice bearing transplantable tumors. Survival or tumor size were measured and the results are expressed as the measurement made in the treated group (T) divided by the measurement made in the vehicle treated control group (C). The tumor model used in this assay is L1210 Leukemia (intraperitoneal) in B6D2F1 (BDF1) mice
Toxic doses and inconclusive results are not listed.

Recorded results for 5 compounds are shown here.
compound | system-under-test | T/C
Cc1ccc(S(=O)(=O)Oc2ccc(C(C)(C)c3ccc(OS(=O)(=O)c4ccc(C)cc4)cc3)cc2)cc1 | L1210 leukemia ip in BDF1 mice, survival T/C | 93 % of control
CC1(C)CC(C)(c2ccc(-n3c(-c4ccccc4)nc4ccccc4c3=O)cc2)c2ccccc2S1 (configuration not stated) | L1210 leukemia ip in BDF1 mice, survival T/C | 91 % of control
CCCC1CC=CCC12C(=O)NC(=O)NC2=O (configuration not stated) | L1210 leukemia ip in BDF1 mice, survival T/C | 97 % of control
C/C(=N/NC(N)=O)c1cccc([N+](=O)[O-])c1 | L1210 leukemia ip in BDF1 mice, survival T/C | 89 % of control
C=CCNC(=O)NCC=C | L1210 leukemia ip in BDF1 mice, survival T/C | 114 % of control

# input Dear colleague, I am looking for the recorded T/C of the following compound: `Cc1csc2ccc([N+](=O)[O-])cc12`
# output 101 % of control

# input # lookup: T/C of `COc1ccccc1C(=O)OCC(=O)c1ccc(-c2ccccc2)cc1`
# output 91 % of control

----------
Tested on: L1210 leukemia ip in BDF1 mice, survival T/C
Assay: NCI In Vivo Anticancer Drug Screen. Data for tumor model L1210 Leukemia (intraperitoneal) in B6D2F1 (BDF1) mice
Conditions: endpoint: mean survival time; dose: 400.0 mg/kg/injection; schedule: Q01DX001 (ip); vehicle: carboxymethylcellulose (CMC)
Inconclusive results and toxic doses are left out. Cut-off read from the data, not from the text of the source: active = T/C of 150% or more; inactive = T/C below 125%.
Allowed answers: active, inactive

# input Which outcome did this test record for the compound `C[C@H]1C[C@H]2[C@@H]3CC[C@](O)(C(=O)CF)[C@@]3(C)C[C@H](O)[C@]2(F)[C@@]2(C)C=CC(=O)C=C12` ?
# output inactive

# input Dear all, I need the recorded test outcome for `Cc1ccc(S(=O)(=O)N(Cc2ccc([N+](=O)[O-])cc2)c2ccccc2)cc1` , thank you.
# output inactive

# input State the result this test recorded for `CC(=O)Nc1cc(F)cc(F)c1Br` .
# output inactive

# input Hi team, can someone confirm the assay call for `CC(=N/NC(N)=S)/C(C)=N/NC(N)=S` ?
# output inactive

# input For `CC(C)N(C(=O)Nc1cc(C(F)(F)F)ccc1Cl)C1CCCCC1` , which call appears in the assay record?
# output inactive

# input Entry `CC(=O)Nc1c(Cl)c(Cl)c(Cl)c2c1-c1ccc(Cl)cc1C2` : call = ?
# output inactive
